These data points were gathered from patent US10238655B2.

experimental_endpoint: melting point

{"compound": "CCN(c1ccc(C(=O)O)c(F)c1)c1cc2c(cc1C)C(C)(C)CCC2(C)C [Example 10]", "test_value": "241.4 to 243.8 °C"}
{"compound": "CCN(c1ccc(C(=O)O)cc1)c1ccc2c(c1)C(C)(C)CCC2(C)C [Example 2]", "test_value": "247.8 to 250.6 °C"}
{"compound": "CCN(c1ccc2c(c1)C(C)(C)CCC2(C)C)c1ccc(C(=O)O)cn1 [Example 1]", "test_value": "230 to 232 °C"}

----------
{"molecule_smiles": "CCN(c1ncc(C(=O)O)cn1)c1cc2c(cc1C)C(C)(C)CCC2(C)C", "melting point": "231.9 to 233.1 °C"}
{"molecule_smiles": "CCN(c1ccc2c(c1)C(C)(C)CCC2(C)C)c1cnc(C(=O)O)cn1", "melting point": "213.1 to 214.4 °C"}
{"molecule_smiles": "CCN(c1ccc(C(=O)O)c(F)c1)c1ccc2c(c1)C(C)(C)CCC2(C)C", "melting point": "252.4 to 256.8 °C"}
{"molecule_smiles": "CCN(c1cnc(C(=O)O)cn1)c1cc2c(cc1C)C(C)(C)CCC2(C)C", "melting point": "203.6 to 205.1 °C"}
{"molecule_smiles": "CCN(c1ccc(C(=O)O)cc1)c1cc2c(cc1C)C(C)(C)CCC2(C)C", "melting point": "252.4 to 256.8 °C"}
